# assay_system: T1, human PRLR on cells (human, UniProt P16471 25-622)
# T1 sequence: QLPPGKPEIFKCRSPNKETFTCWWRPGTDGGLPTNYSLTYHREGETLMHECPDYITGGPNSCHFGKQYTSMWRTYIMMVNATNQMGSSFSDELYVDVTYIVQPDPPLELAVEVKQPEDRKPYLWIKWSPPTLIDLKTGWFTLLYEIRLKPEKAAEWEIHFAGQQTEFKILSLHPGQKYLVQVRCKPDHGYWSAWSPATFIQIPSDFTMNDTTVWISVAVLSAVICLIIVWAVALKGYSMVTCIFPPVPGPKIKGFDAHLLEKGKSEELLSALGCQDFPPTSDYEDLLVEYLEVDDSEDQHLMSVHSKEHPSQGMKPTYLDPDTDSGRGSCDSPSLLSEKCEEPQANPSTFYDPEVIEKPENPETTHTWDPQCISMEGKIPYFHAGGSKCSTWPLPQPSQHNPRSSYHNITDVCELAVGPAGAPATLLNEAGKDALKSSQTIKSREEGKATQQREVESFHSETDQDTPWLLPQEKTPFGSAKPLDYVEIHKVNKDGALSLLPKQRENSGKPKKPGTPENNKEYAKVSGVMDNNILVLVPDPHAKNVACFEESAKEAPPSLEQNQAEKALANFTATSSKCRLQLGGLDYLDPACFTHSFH
# assay_protocol: cell-based or functional assay
readout: Baf3-hPRLR proliferation IC50 (µg/mL)
Entry rule: numbers only, all in µg/mL.

query: Provide only the value of recorded Baf3-hPRLR proliferation IC50 for chAb9 (antibody, human IgG1, kappa, V domains shown) VH: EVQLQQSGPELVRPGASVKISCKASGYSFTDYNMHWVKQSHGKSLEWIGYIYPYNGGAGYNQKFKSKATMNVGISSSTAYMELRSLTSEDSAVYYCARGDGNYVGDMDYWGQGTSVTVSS VL: DIQMTQSPASLSASVGETVTITCRASENIYSYLAWYQQKQGKSPQLLVYNAKTLAEGVPSRFSGSGSGTQFSLKINSLQPEDFGSYYCQHHSGTPFTFGSGTKLEIKT
result: 0.2

query: Provide only the value of recorded Baf3-hPRLR proliferation IC50 for Ab17 (antibody, human IgG1, kappa, V domains shown, humanized from Ab6; G1; also called Ab1 HC.1 and Ab1 LC.2a) VH: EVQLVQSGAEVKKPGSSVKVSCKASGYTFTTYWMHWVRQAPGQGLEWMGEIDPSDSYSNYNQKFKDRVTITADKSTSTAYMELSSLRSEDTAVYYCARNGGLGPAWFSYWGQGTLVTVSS VL: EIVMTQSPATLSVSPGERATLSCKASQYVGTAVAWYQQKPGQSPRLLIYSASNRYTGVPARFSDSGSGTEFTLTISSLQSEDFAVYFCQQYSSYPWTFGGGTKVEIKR
result: 0.14

query: Provide only the value of recorded Baf3-hPRLR proliferation IC50 for Ab13 (antibody, V domains shown, murine monoclonal, isotype G2a; also called murine Ab13) VH: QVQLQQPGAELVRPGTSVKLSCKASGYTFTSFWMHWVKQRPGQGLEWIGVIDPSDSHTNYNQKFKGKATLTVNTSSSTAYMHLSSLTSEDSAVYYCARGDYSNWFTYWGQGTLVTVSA VL: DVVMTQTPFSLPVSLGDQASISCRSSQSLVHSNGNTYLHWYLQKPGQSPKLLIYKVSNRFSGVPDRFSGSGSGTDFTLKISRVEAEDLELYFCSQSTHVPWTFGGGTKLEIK
result: 0.32

Next:
query: Provide only the value of recorded Baf3-hPRLR proliferation IC50 for Ab47 (antibody, human IgG1, kappa, V domains shown, humanized from Ab8; G1; also called Ab3 HC.1a and Ab3 LC.1) VH: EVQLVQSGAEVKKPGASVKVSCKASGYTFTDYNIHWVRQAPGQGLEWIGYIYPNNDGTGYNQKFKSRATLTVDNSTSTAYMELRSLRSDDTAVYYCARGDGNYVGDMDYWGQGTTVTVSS VL: DIQMTQSPSSLSASVGDRVTITCRASENIYSYLAWYQQKPGKAPKLLIYNAKTLAEGVPSRFSGSGSGTDFTLTISSLQPEDFATYYCQHHYATPFTFGQGTKLEIKR
result: 0.4
